# target_system: T1, BCMA (Homo sapiens (Human), UniProt Q02223 1-54, limits assumed)
# T1 sequence: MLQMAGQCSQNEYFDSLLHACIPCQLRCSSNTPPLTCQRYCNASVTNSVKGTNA
# assay_remarks: ELISA, format not described
# Set-up: unit not given here
endpoint_name: ELISA_avg

In [3]: df
Out[3]:
                                     binder  measured_result
0  D-domain SEQ ID NO: 104 (designed binder) MGSWSEFSDRLHAISDRLQALGGSEAELAAFEKEIAAFESELQAYKGKGNPEVEELRIQAAIIRVWLQAYRHN             6.37
1  D-domain SEQ ID NO: 171 (designed binder) MGSWIEFHQRLNAIFNRLRALGGSEAELAAFEKEIAAFESELQAYKGKGNPEVEWLRHHAAYIREMLQAYRHN             7.34
2  D-domain SEQ ID NO: 61 (designed binder) MGSWNEFAWRLIAINQRLWALGGSEAELAAFEKEIAAFESELQAYKGKGNPEVESLRHFAANIRNDLQAYRHN             11.5

Source listed as patent US20250026849A1.
